The measured values listed here are drawn from patent US10766865B2.

System: Ls174T
Protocol Text: Cell line sensitivity (viability, ATPlite)
Assay type: cell-based
Conditions: Homo sapiens, Colon, BME media, 72 hours, read-out: Sensitivity to Example 1 (IC50)
pIC50: −log10 of the molar value.
Recorded Endpoint: pIC50

**Q:** May I ask what pIC50 has been recorded for O=C(c1cc(C(F)(F)F)n[nH]1)N(Cc1ccc(O)cc1F)CC1CCC1 [Example 1] ?
**A:** < 4.52

* * *

Provide the reported EC50 of each item.
Test system: PC3 cells
Protocol Text: Cell Proliferation Assay, PC3
Assay type: cell-based
Conditions: Homo sapiens, PC-3; PC3, BME media lacking nonessential amino acids, 72 hours, ATPlite; read-out: Percent viability (EC50), Average

**Q:** EC50 for `CO[C@H]1CC[C@H](N(Cc2cccc(N)c2)C(=O)c2cc(C(F)(F)F)n[nH]2)CC1` ?
**A:** 193 nM

**Q:** Now the compound O=C(c1cc(C(F)(F)F)n[nH]1)N(Cc1ccccc1Cl)CC1CCN1 (stereo not shown)
**A:** 1310 nM

**Q:** // repeat for `CO[C@H]1CC[C@H](N(Cc2ccccc2F)C(=O)c2cc(C(F)(F)F)n[nH]2)CC1` and report
**A:** 383 nM

**Q:** Lookup `Nc1cccc(Cl)c1CN(CCN1CCCOCC1)C(=O)c1cc(C(F)(F)F)n[nH]1`
**A:** 129 nM

**Q:** Can you check O=C(c1cc(C(F)(F)F)n[nH]1)N(CCC1CCS(=O)(=O)C1)Cc1ccccc1Cl (stereo not shown) next?
**A:** 166 nM

**Q:** Do the same for `CCCN(CC)CCN(Cc1c(N)cccc1Cl)C(=O)c1cc(C(F)(F)F)n[nH]1` please
**A:** 54 nM

**Q:** Here is the next compound: `O=C(c1cc(C(F)(F)F)n[nH]1)N(CCC1CCS(=O)(=O)CC1)Cc1ccccc1Cl`
**A:** 223 nM
